B1: ANKRD44 (parent)
chain: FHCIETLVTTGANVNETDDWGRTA

# Variants of: B1
# PROTOCOL_DETAILS: protein stability index of a GFP-peptide fusion (GPS, HEK-293T) (PSI 1-6); higher = more stable;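 also: lentivirally expressed fusions sorted by FACS into six bins by GFP to DsRed ratio, PSI derived from sequencing read proportions per bin multiplied by bin number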
# ASSAY_CONDITIONS: c terminus: a fixed tail appended
MEASURE_NAME: protein stability index
Would you mind answering with just the numeric figure?

Some entries whose results are on file:
RESIDUE_STRING	protein stability index
FHCIETLVTTGANVNETSDWGRTA [D18S]	2.18
FHCIETLVTTGANVEETDDWGRTA [N15E]	2.13
FHCIETLVTPGANVNETDDWGRTA [T10P]	2.36
FHCIETLVTTGANVNETWDWGRTA [D18W]	2.07
FHCIETLVTTGANVNETDDWGRLA [T23L]	1.91

Now consider a different variant.
Task: Which measured protein stability index value corresponds to FHCIETLVTTGANVRETDDWGRTA [N15R] ?
Result: 2.01
